Origin of measurements: paper PMC10287707

- TARGET_SYSTEM: T1, TIA1 RRM2_3 (human, UniProt P31483-2 93-274)
- T1 sequence: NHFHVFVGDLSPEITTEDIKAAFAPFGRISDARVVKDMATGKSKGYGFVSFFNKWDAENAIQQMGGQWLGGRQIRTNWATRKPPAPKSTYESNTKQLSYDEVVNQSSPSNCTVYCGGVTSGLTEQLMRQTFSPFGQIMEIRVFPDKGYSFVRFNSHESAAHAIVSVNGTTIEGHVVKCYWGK
- ASSAY_PROCEDURE: EMSA; EMSA: 10 mM sodium phosphate pH 6.5, 50 mM NaCl, 1 mM DTT, 1 U/ul SUPERase-In, room temperature 20 min, native 1.2% agarose; RNA annealed in 10 mM Tris-HCl pH 7.5, 100 mM KCl
- CONDITION_PARAMETERS: protein: recombinant; tags: His6-SUMO removed by SUMO protease; label: 5'-Cy3; two hairpins
METRIC_NAME: pKd
Schema: pKd number; meaning minus log10 of the concentration expressed in molar units.

Please look up its pKd: UUUCGAUCUCUUGUAGAUCUGUUCUCUAAACGAACUUUAAAAUCU (structured_RNA) [SL2+SL3] 6.37
